All figures here come from patent US8119695B2.

Test system: MH100x4
Assay: MH100x4 luciferase reporter without receptor
Type: cell-based
Conditions: Table 2; dose 5 (unit not given); None 0.49
Excerpt: MH100x4 is a luciferase reporter with four copies of a GAL4 […] response element. GAL-L refers to the ligand-binding domain of the indicated receptor fused to the C-terminus of the GAL4 DNA binding domain.
Rule for this label: T means Reporter Activity is less than 0.3; F means Reporter Activity is at least 0.3.

Solved entries (count: 4):
> print(dat)
                            compound.smiles  label.value
1  CCC(=C(CC)c1ccc(O)c(C(C)(C)C)c1)c1ccc(O)cc1            T
2  CCC(=C(CC)c1ccc(O)c(C(C)C)c1)c1ccc(O)cc1            F
3  C=CCc1cc(C(CC)=C(CC)c2ccc(O)c(CC=C)c2)ccc1O            T
4  C=CCOc1ccc(C(CC)=C(CC)c2ccc(O)c(CC=C)c2)cc1            F

Here is the next item to consider.
Lookup: Reporter Activity under 0.3? Item: `C=CCOc1ccc(C(CC)=C(CC)c2ccc(OCC=C)cc2)cc1`
Found: F

###

tested on: ERRγ (GAL-ERRg); assay: MH100x4 luciferase reporter with GAL-ERRg; assay type: cell-based; details: Table 2; dose 5 (unit not given); None 1.00
PROPERTY_MEASURED: Fold Activation
// response body must contain only the number

Would you please look over these solved cases?
> print(dat)
                            compound.smiles  test.value
1  CCCCCCCCCCCCOc1ccc(/C(CC)=C(\CC)c2ccc(O)cc2)cc1        1.10
2  CCCCCCCCCCCCOc1ccc(C(CC)=C(CC)c2ccc(OCCCCCCCCCCCC)cc2)cc1        0.89
3  CCC(=C(CC)c1ccc(O)c(C(C)(C)C)c1)c1ccc(O)cc1        0.58
4  CCC(=C(CC)c1ccc(O)c(C=C(C)C)c1)c1ccc(O)cc1        0.91
5  C=CCOc1ccc(C(CC)=C(CC)c2ccc(O)c(CC=C)c2)cc1        0.57

// next entry
Lookup: Given `C=CCOc1ccc(C(CC)=C(CC)c2ccc(OCC=C)cc2)cc1` , report its Fold Activation on ERRγ (GAL-ERRg).
Found: 0.81
